- System: DeltatarO mutant
- measurement-notes: S. aureus survival, RN4220 and DeltatarO strains – OD600, teichoic acid synthesis inhibitors, primary screen (AID 463173)
- condition-details: S. aureus RN4220 wild type/DeltatarO growth, OD600, 18 h, active compounds read low, screened at 18.75 µg/mL (by protocol)
Hit rate of the full screen: of about 52,000 compounds, about 4,300 (8.3%) were called active. Many of the other results were omitted from the sample, so actives are more common in it than they were.
property-label: survival (%)

molecular_string=Cc1ccc(NC(=O)c2nnn(Cc3cccc(C(F)(F)F)c3)c2N)c(C)c1 recorded_value=86
molecular_string=COc1cc2c(-c3ccccc3C)nc3c(c(C)nn3-c3ccccc3)c2cc1OC recorded_value=35
molecular_string=COc1ccc(CNC(=O)CCc2c(C)nc3c(c(C)nn3-c3ccccc3)c2C)cc1 recorded_value=78
molecular_string=COc1cc2c(-c3ccccc3Cl)nc3c(c(C)nn3-c3ccccc3)c2cc1OC recorded_value=57

====

- Test system: DeltatarO mutant
- measurement-notes: S. aureus survival, RN4220 and DeltatarO strains – OD600, teichoic acid synthesis inhibitors, primary screen (AID 463173)
- condition-details: S. aureus RN4220 wild type/DeltatarO growth, OD600, 18 h, active compounds read low, screened at 18.75 µg/mL (by protocol)
Screen size: about 52,000 compounds; about 4,300 (8.3%) were called active. Many of the other results were omitted from the sample, so actives are more common in it than they were.
Lab note: anything with survival below 70% is marked met; values at 70% or higher are marked not met.

compound="COc1ccc(C2C=C(c3ccccc3)Nc3nc(NS(=O)(=O)c4ccc(C)cc4)nn32)cc1 (stereo not drawn)" class_label=met
compound="CCCCn1c(C2CC(=O)N(c3ccc(OCC)cc3)C2)nc2ccccc21 (stereo not drawn)" class_label=met
compound="C#CCn1c(C2CC(=O)N(c3ccc(OC)cc3)C2)nc2ccccc21 (stereo not drawn)" class_label="not met"
compound="CC1CCc2onc(C(=O)Nc3ccc(Cl)cc3)c2C1 (stereo not drawn)" class_label="not met"
compound=COc1ccc(Br)cc1CNC(=O)CN1C(=O)CCCc2ccccc21 class_label="not met"
compound="Cc1ccc(C2=CC(c3c(F)cccc3Cl)n3ncnc3N2)cc1C (stereo not drawn)" class_label=met
compound="CCc1ccccc1NC(=O)c1noc2c1CC(C(C)(C)C)CC2 (stereo not drawn)" class_label=met
compound="CC(C)c1ccc(C2=CC(c3ccc(C(C)C)cc3)n3nnnc3N2)cc1 (stereo not drawn)" class_label=met

====

- Test system: DeltatarO mutant
- measurement-notes: S. aureus survival, RN4220 and DeltatarO strains – OD600, teichoic acid synthesis inhibitors, primary screen (AID 463173)
- condition-details: S. aureus RN4220 wild type/DeltatarO growth, OD600, 18 h, active compounds read low, screened at 18.75 µg/mL (by protocol)
Among all 52,000 compounds or so, about 4,300 (8.3%) were called active. The sample holds actives, similar compounds and a random draw of the others, so the mix is not that of the screen.
property-label: survival (%)

molecular_string=COc1ccc(NC(=O)c2oc3c(c2C)-c2nn(Cc4c(F)cccc4Cl)cc2CC3)c(OC)c1 assay_target="DeltatarO mutant" recorded_value=72
molecular_string=COc1ccc(-c2noc(CC(=O)N(C)c3cccc(C)c3)n2)cc1 assay_target="DeltatarO mutant" recorded_value=68
molecular_string=Cc1ccc(C(=O)Nc2ccc3oc(-c4ccc(C(C)(C)C)cc4)nc3c2)cc1 assay_target="DeltatarO mutant" recorded_value=70
molecular_string=COc1ccc(-c2nc3n(c2NC(C)(C)C)CCN(C(=O)Cc2ccccc2F)C3)cc1 assay_target="DeltatarO mutant" recorded_value=88
molecular_string=COc1cc(OC)c(NS(=O)(=O)c2cc3c(cc2C)NC(=O)CO3)cc1Cl assay_target="DeltatarO mutant" recorded_value=88
molecular_string=CCCCOc1ccc(C(=O)Nc2ccc3oc(-c4cccnc4)nc3c2)cc1 assay_target="DeltatarO mutant" recorded_value=69
molecular_string=Cc1cccc(C)c1NC(=O)C1CCN(S(=O)(=O)c2cccc3nsnc23)CC1 assay_target="DeltatarO mutant" recorded_value=89
